Target: UniProt O35678
Sequence (O35678 whole entry): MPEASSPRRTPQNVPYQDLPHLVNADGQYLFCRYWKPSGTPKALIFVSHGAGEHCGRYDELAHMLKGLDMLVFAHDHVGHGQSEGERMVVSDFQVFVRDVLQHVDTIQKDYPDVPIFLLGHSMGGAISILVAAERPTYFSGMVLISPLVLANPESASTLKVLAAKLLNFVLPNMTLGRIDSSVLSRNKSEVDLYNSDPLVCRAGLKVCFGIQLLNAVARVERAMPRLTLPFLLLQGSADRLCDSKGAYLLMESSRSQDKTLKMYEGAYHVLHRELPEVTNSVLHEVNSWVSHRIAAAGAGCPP
Experiment: In vitro competitive activity-based protein profiling (FP-Rh), mouse MAGL
Assay type: biochemical
Parameters: from tissue; host or cells: mouse brain membrane fraction
Details: Table 2, mouse proteome, 30 min preincubation at 37° C.
Procedure: In Vitro Competitive Activity-Based Protein Profiling. Proteomes (mouse brain membrane fraction or cell lysates) (50 μL, 1.0 mg/ml total protein concentration) were preincubated with varying concentrations of inhibitors at 37° C. After 30 min, FP-Rh (1.0 μL, 50 μM in DMSO) was added and the mixture was incubated for another 30 min at 37° C. Reactions were quenched with SDS loading buffer (50 μL—4×) and run on SDS-PAGE.
quantity measured: IC50

smiles entry: COc1cc(N2CCOCC2)ccc1CN1CCN(C(=O)ON2C(=O)CCC2=O)CC1
readout value: 1000 to 10000 nM

smiles entry: Cc1cc(N2CCOCC2)ccc1CN1CCN(C(=O)ON2C(=O)CCC2=O)CC1
readout value: 1000 to 10000 nM

smiles entry: Cc1cc(Cl)ccc1C(c1ccc(Cl)cc1C)N1CCN(C(=O)ON2C(=O)CCC2=O)CC1
readout value: 100 to 1000 nM

smiles entry: O=C(ON1C(=O)CCC1=O)N1CCN(Cc2ccc(Cl)cc2N2CCC3(CCOCC3)C2)CC1
readout value: < 100 nM

smiles entry: O=C(ON1C(=O)CCC1=O)N1CCN(Cc2ccc(Cl)cc2N2CCOCC2)CC1
readout value: < 100 nM

smiles entry: CN(C)C(=O)c1cc(-c2ccccc2)ccc1CN1CCN(C(=O)ON2C(=O)CCC2=O)CC1
readout value: 100 to 1000 nM

smiles entry: O=C(ON1C(=O)CCC1=O)N1CCN(Cc2cc(Cl)ccc2N2CCCC2)CC1
readout value: < 100 nM

smiles entry: COc1ccc(CN2CCN(C(=O)ON3C(=O)CCC3=O)CC2)cc1
readout value: 1000 to 10000 nM

smiles entry: Cn1cc(CN2CCN(C(=O)ON3C(=O)CCC3=O)CC2)c(-c2ccccc2)n1
readout value: 1000 to 10000 nM

smiles entry: O=C(ON1C(=O)CCC1=O)N1CCN(Cc2ccc(N3CCOCC3)cc2Cl)CC1
readout value: 1000 to 10000 nM

Input line: What measured IC50 goes with Cc1c(CN2CCN(C(=O)ON3C(=O)CCC3=O)CC2)cccc1N1CCCC1 ?
Output line: < 100 nM

###

biological target: ABHD6 (Mus musculus); assay: In vitro competitive activity-based protein profiling (FP-Rh), mouse ABHD6; assay type: biochemical; parameters: from tissue; host or cells: mouse brain membrane fraction; conditions: Table 2, mouse proteome, 30 min preincubation at 37° C.
Sequence (Q8R2Y0 whole entry): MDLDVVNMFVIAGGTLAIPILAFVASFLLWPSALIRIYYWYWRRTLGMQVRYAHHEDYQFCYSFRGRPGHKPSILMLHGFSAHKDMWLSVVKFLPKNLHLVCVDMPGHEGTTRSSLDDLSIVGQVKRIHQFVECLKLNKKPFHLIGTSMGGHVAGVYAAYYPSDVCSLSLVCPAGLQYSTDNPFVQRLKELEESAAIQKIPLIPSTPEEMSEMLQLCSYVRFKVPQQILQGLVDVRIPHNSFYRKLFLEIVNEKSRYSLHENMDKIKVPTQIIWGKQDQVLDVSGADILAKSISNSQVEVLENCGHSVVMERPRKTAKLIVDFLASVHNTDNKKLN
# maps each entry to its IC50

smiles entry: Cc1cc(N2CCCC2)ccc1CN1CCN(C(=O)ON2C(=O)CCC2=O)CC1
IC50: 100 to 1000 nM

smiles entry: O=C(ON1C(=O)CCC1=O)N1CCN(Cc2cc(Cl)ccc2N2CCCC2)CC1
IC50: 100 to 1000 nM

smiles entry: Cc1cc(Cl)ccc1C(c1ccc(Cl)cc1C)N1CCN(C(=O)ON2C(=O)CCC2=O)CC1
IC50: 1000 to 10000 nM

Input line: Data request, read-out IC50, for O=C(ON1C(=O)CCC1=O)N1CCN(Cc2ccc(Cl)cc2N2CC3CCC(C2)O3)CC1
Output line: 1000 to 10000 nM

Input line: IC50 for O=C(ON1C(=O)CCC1=O)N1CCN(Cc2cc(Cl)ccc2N2CCOCC2)CC1 ?
Output line: 1000 to 10000 nM

Input line: Return reported IC50; argument: O=C(ON1C(=O)CCC1=O)N1CCN(Cc2cccc(Cl)c2N2CCCC2)CC1
Output line: 1000 to 10000 nM

Input line: // lookup IC50 for CN(C)C(=O)c1cc(-c2ccccc2)ccc1CN1CCN(C(=O)ON2C(=O)CCC2=O)CC1
Output line: 1000 to 10000 nM

Input line: # lookup: IC50 of O=C(ON1C(=O)CCC1=O)N1CCN(Cc2cccc(F)c2N2CCCC2)CC1
Output line: 100 to 1000 nM

Input line: Give its IC50 value. Item: O=C(ON1C(=O)CCC1=O)N1CCN(Cc2ccc(C(F)(F)F)cc2N2CCOCC2)CC1
Output line: 100 to 1000 nM
